Test: qHTS Assay for Lipid Storage Modulators in Drosophila S3 Cells
Details: BODIPY lipid droplet fluorescence, 18-24 h, cells fed with added oleic acid; series mostly up to 46.1 µM
The campaign covered roughly 320,000 compounds. About 2,100 (0.66%) were called active. Inconclusive results (about 53%) are left out. Calls follow the shape of the dose curve; as a rule, active = well fitted inhibition curve with a large enough effect in the signal ratio, with a control signal flat (not every such curve was filed as active); inconclusive = small, poorly fitted or top-dose-only effect, or effect the other way, or a change in a side signal; inactive = flat fitted curve, though single readings scatter; the % refers to the signal ratio. The sample as a whole holds a higher share of actives than the screen did.
Permitted responses: active, inactive

Worked examples follow.
>>> df
                                   compound     group
0  O=C(COC(=O)CCc1c[nH]c2ccccc12)Nc1cc([N+](=O)[O-])ccc1Cl  inactive
1        CN(C)c1ccc(/C=C/C(=O)c2ccccc2O)cc1  inactive
2  CN1C(=O)/C(=C/c2ccc(O)c([N+](=O)[O-])c2)N(C)C1=S  inactive
3            O=C(/C=C/c1cccs1)c1cc(Cl)ccc1O  inactive
4  O=C(Nc1cccnc1)c1ccc2c(c1)C(=O)N(CC1CCCO1)C2=O (stereo unspecified)  inactive
5  COc1ccc2c(c1)C(C)=CC(C)(C)N2C(=O)C(C)N1C(=O)c2ccccc2C1=O (stereo unspecified)  inactive
6  Cc1c(C(=O)N(Cc2ccc(F)cc2)C2CCS(=O)(=O)C2)oc2ccccc12 (stereo unspecified)  inactive
7  O=C(CCc1c[nH]c2ccccc12)OCc1cccc([N+](=O)[O-])c1    active
8  COc1ccc(CC(=O)NCC2CCCN(Cc3ccccc3Cl)C2)cc1 (stereo unspecified)  inactive
9  Cc1cc(Cl)c(S(=O)(=O)NC(C(=O)O)c2ccccc2)cc1OCC(N)=O (stereo unspecified)  inactive

Q) Write down the call the test reported for this compound. Item: CN(C)c1ccc(/C=C/C(=O)c2cc(Cl)ccc2O)cc1
A) active

Q) Write down the call the test reported for this compound. Item: Cc1cc(Cl)c2oc(C(=O)N3CCN(C4CCS(=O)(=O)C4)CC3)c(C)c2c1 (stereo unspecified)
A) inactive

Q) Write down the call the test reported for this compound. Item: O=C(COC(=O)CCc1c[nH]c2ccccc12)Nc1ccc([N+](=O)[O-])cc1
A) inactive

Q) Write down the call the test reported for this compound. Item: Cc1c(C(=O)N(Cc2ccccc2)C2CCS(=O)(=O)C2)oc2ccccc12 (stereo unspecified)
A) inactive

Q) Write down the call the test reported for this compound. Item: CCCCn1c(-c2ccc(C(C)(C)C)cc2)nc2cc3[nH]c(=O)c(C(C)C)nc3cc21
A) inactive

Q) Write down the call the test reported for this compound. Item: O=C1C(Cc2ccc(O)cc2)NC(=S)N1C1CCCCC1 (stereo unspecified)
A) inactive

Q) Write down the call the test reported for this compound. Item: COc1ccc(NC(=S)N(CCc2nc3cc(C)c(C)cc3[nH]2)Cc2cccnc2)cc1
A) inactive

Q) Write down the call the test reported for this compound. Item: O=C(NCCOC(=O)C1COc2ccccc2O1)C1COc2ccccc2O1 (stereo unspecified)
A) inactive

Q) Write down the call the test reported for this compound. Item: Cc1nc2c(C(=O)N3CCOCC3)cnn2c(C)c1Cc1ccc(Cl)cc1
A) inactive

Q) Write down the call the test reported for this compound. Item: CC1=C(C)CC(C(=O)Nc2ccc3c(c2)OCO3)C(C(=O)O)C1 (stereo unspecified)
A) inactive

Q) Write down the call the test reported for this compound. Item: NC(=O)CN1C(=O)C(O)(CC(=O)/C=C\c2ccc3c(c2)OCO3)c2ccccc21 (stereo unspecified)
A) inactive

---

Assay: qHTS Assay for Lipid Storage Modulators in Drosophila S3 Cells;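 as to cell number change: cells counted by Cell Tracker Red CMTPX staining in the red channel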
Settings: BODIPY lipid droplet fluorescence, 18-24 h, cells fed with added oleic acid; measured here: cell count max response
In all, about 320,000 compounds went through this assay and about 2,100 (0.66%) were called active. Roughly 53% stayed inconclusive and do not appear here. This is one part of a sample in which actives are shown more often than they occur.
measure: cell number change (%)
Answers are plain numbers, in %.

Consider the following items and state reported cell number change for each.
1. O=C(O)CN1C(=O)C(=O)N(Cc2ccccc2F)C1=O
2. Cc1ccc(NC(=O)Nc2nc3ccc(S(C)(=O)=O)cc3s2)cc1
3. CCn1c(=N)c(S(=O)(=O)c2ccc(C)cc2)cc2c(=O)n3ccccc3nc21

A)
1: 9.39; 2: 0.9; 3: 11.4

Consider the following items and state reported cell number change for each.
1. CCOC(=O)CNC(=O)CSc1ncnc2c1cnn2-c1ccc(C)cc1
2. CS(=O)(=O)c1ccc2nc(NC(=O)c3cccc(Cl)c3)sc2c1
3. CCOC(=O)CSc1ncnc2c1cnn2-c1ccc(Cl)cc1

A)
[-17, 5.93, 4.64]

---

Assay: qHTS Assay for Lipid Storage Modulators in Drosophila S3 Cells;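 as to cell number change: cells counted by Cell Tracker Red CMTPX staining in the red channel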
Details: BODIPY lipid droplet fluorescence, 18-24 h, cells fed with added oleic acid; measured here: cell count max response
The whole screen tested about 320,000 compounds, of which about 2,100 (0.66%) were called active. Inconclusive results (about 53%) are left out. This is one part of a sample in which actives are shown more often than they occur.
measure: cell number change (%)
Give bare numbers, in %.

// worked examples, cell number change included
                                   compound  reported_measurement
0                             COc1ccccc1CNN                 -17.3
1  O=C(c1cccc(Cl)c1)N1CCC(N2CCC(C(=O)N3CCOCC3)CC2)CC1                 -7.23
2  CCN(CC)S(=O)(=O)c1cc(C(=O)n2cccn2)c(Cl)cc1Cl                -0.259

Consider the following items and state reported cell number change for each.
1. CCNC(=O)CC1SC(=Nc2ccccc2C)N(C)C1=O (configuration not stated)
2. CC(=Nc1ccc(O)cc1)c1sc2ccccc2c1O
3. Cc1ccc(C)c(NC(=O)c2cc[n+](C)cc2)c1
4. Cc1ccc(NC(=O)CCN2C(=O)c3ccccc3C2=O)c(C)c1
5. CCOC(=O)N1CCN(CC(O)COc2ccccc2C(C)C)CC1 (configuration not stated)

A)
1. 12.4
2. 0.835
3. -24.7
4. 5.45
5. -2.25

---

Assay: qHTS Assay for Lipid Storage Modulators in Drosophila S3 Cells; as to lipid storage change, negative = inhibition: % is scaled to controls: 0 for no effect and ±100 for the full control effect
Details: BODIPY lipid droplet fluorescence, 18-24 h, cells fed with added oleic acid; series mostly up to 46.1 µM
In all, about 320,000 compounds went through this assay and about 2,100 (0.66%) were called active. Inconclusive results (about 53%) are left out. The list comes from a sample in which actives are over-represented; it also holds close analogues and randomly drawn compounds.
Provide the recorded lipid storage change, negative = inhibition for the entries that follow.

// worked examples, lipid storage change, negative = inhibition included
>>> df
                                chem_smiles              reported_measurement
0     O=C(/C=C/N1CCN(Cc2ccccc2)CC1)C(F)(F)F   -0.119% [at 9.22 µM] (inactive)
1  CC(C)(C)C(=O)COC(=O)c1cc(S(=O)(=O)N2CCCCC2)ccc1N1CCOCC1  -21.4% [at 0.0737 µM] (inactive)
2  O=C(COC(=O)CCN=C1NS(=O)(=O)c2ccccc21)NNC(=O)c1ccccc1  -1.99% [at 0.0737 µM] (inactive)
3  CC(C)c1nc(SCC(=O)N2CCOCC2)c2c(=O)n(C)c(=O)n(C)c2n1     8.15% [at 9.22 µM] (inactive)
4                  COCC(=O)Nc1ccc(Br)c(C)c1     14.1% [at 9.22 µM] (inactive)

Let us examine a further case.
Q) Sample O=C(CSc1cn[nH]n1)Nc1ccccc1F — what was its lipid storage change, negative = inhibition?
A) -23.4% [at 0.0737 µM] (inactive)

---

Assay: qHTS Assay for Lipid Storage Modulators in Drosophila S3 Cells
Conditions: BODIPY lipid droplet fluorescence, 18-24 h, cells fed with added oleic acid; series mostly up to 46.1 µM
In all, about 320,000 compounds went through this assay and about 2,100 (0.66%) were called active. Not shown: some 53% with an inconclusive outcome. The call rests on the fitted dose curve; in most records, active means well fitted inhibition curve with a large enough effect in the signal ratio, with a control signal flat (not every such curve was filed as active); inconclusive means small, poorly fitted or top-dose-only effect, or effect the other way, or a change in a side signal; inactive means flat fitted curve, though single readings scatter; the % refers to the signal ratio. This is one part of a sample in which actives are shown more often than they occur.
Permitted responses: Yes = active, No = inactive

Worked examples follow.
                                   molecule  group
0  CCc1nnc(NC(=O)C2CCN(S(=O)(=O)Cc3ccccc3)CC2)s1     No
1  Cc1c(NC(=O)c2n[nH]c(=O)c3ccccc23)c(=O)n(-c2ccccc2)n1C     No
2  CCOC(=O)C1CCN(C(=O)c2ccc(N3CCCC3=O)cc2)CC1     No
3   NNC(=O)/C(=C\c1ccc(Br)cc1)NC(=O)c1cccs1     No
4    NC(=O)Nc1ccc(C(=O)OCC(=O)N2CCCC2=O)cc1     No
5   O=Cc1c(N2CCN(c3ccccc3)CC2)nc2ccccn2c1=O     No

Q) Write down the call the test reported for this molecule. Item: O=C(c1ccc(F)cc1)N1CCN(S(=O)(=O)c2ccc(Br)cc2)CC1
A) No

Q) Write down the call the test reported for this molecule. Item: O=C(CN1CCN(S(=O)(=O)c2ccccc2)CC1)NCCc1ccccc1
A) No

Q) Write down the call the test reported for this molecule. Item: O=C(CNC(=O)c1ccccc1)OCc1cccc(Br)c1
A) No

Q) Write down the call the test reported for this molecule. Item: CC(=O)/C(=C/Nc1ccc(Oc2ccccc2)cc1)c1ccccc1
A) No

Q) Write down the call the test reported for this molecule. Item: CCOc1ccc(NC(=O)[C@@H](NC(=O)c2ccco2)C(C)C)cc1
A) No

Q) Write down the call the test reported for this molecule. Item: COc1ccc(S(=O)(=O)N2CCN(CC(=O)NCCc3cccs3)CC2)cc1
A) No

Q) Write down the call the test reported for this molecule. Item: Cc1ccccc1C(=O)c1cccn1CC(=O)NCC(C)c1ccccc1 (stereo not drawn)
A) No

Q) Write down the call the test reported for this molecule. Item: CC(C)(C)NC(=O)CCc1nnc(Cc2c[nH]c3ccccc23)o1
A) No

Q) Write down the call the test reported for this molecule. Item: O=C(CN1CC(c2ccccc2)CC1=O)OCc1cccc(Br)c1 (stereo not drawn)
A) No

Q) Write down the call the test reported for this molecule. Item: Nc1nnnn1CC(=O)OCc1cccc(Br)c1
A) Yes

Q) Write down the call the test reported for this molecule. Item: CCCCN(C(=O)c1ccc(NC2CC2)c([N+](=O)[O-])c1)c1c(N)n(CCCC)c(=O)[nH]c1=O
A) No

Q) Write down the call the test reported for this molecule. Item: CCOC(=O)c1c(NC(=O)c2ccccc2C(=O)O)sc2c1CCC2
A) No

Q) Write down the call the test reported for this molecule. Item: O=C(OCC(=O)N1CCCC1=O)c1nc(Cl)c(Cl)c(Cl)c1Cl
A) Yes

Q) Write down the call the test reported for this molecule. Item: O=C(Nc1ccc(Cl)cc1)Nc1nnc(Cc2ccc([N+](=O)[O-])cc2)s1
A) No

Q) Write down the call the test reported for this molecule. Item: COc1ccc(N2CCN(c3nc4ccccn4c(=O)c3C=O)CC2)cc1
A) Yes

Q) Write down the call the test reported for this molecule. Item: Cc1ccc(NC(=O)c2ccc(Cl)c(NC(=O)c3cccs3)c2)cc1
A) Yes

Q) Write down the call the test reported for this molecule. Item: c1ccc(CN2CCOCCOCCOCC2)cc1
A) No
